tested on: NCI-H3122; assay: relative viability (nuclei count vs DMSO), 5 days (fraction); higher = more cells survive; conditions: first compound 0.6325 µM
List of relative viability values.
Just the number, please, no unit after it.

- COMPOUND: "COCC1(CO)C(=O)C2CCN1CC2 (stereo unspecified) [PRIMA-1MET] + NC(=O)Nc1cc(-c2cccc(F)c2)sc1C(=O)N[C@H]1CCCNC1 [AZD7762] (partner 0.2 µM)"
  relative viability: 0.911

In the following, a different compound is considered.
What value of relative viability has been recorded for this entry: COCC1(CO)C(=O)C2CCN1CC2 (stereo unspecified) [PRIMA-1MET] + Nc1ncn([C@H]2C[C@H](O)[C@@H](CO)O2)c(=O)n1 [Decitabine] (partner 2 µM)
0.288

---

tested on: EKVX; test: relative viability (nuclei count vs DMSO), 5 days (fraction); higher = more cells survive; conditions: first compound 1 µM
The class of a record is decided solely by its measured relative viability; consult c1 = under 0.4, c2 = from 0.4 up to 0.8, c3 = 0.8 and over

- COMPOUND: "O=c1cc(N2CCOCC2)oc2c(-c3cccc4c3sc3ccccc34)cccc12 + CC(C)C[C@H](NC(=O)[C@H](Cc1ccccc1)NC(=O)c1cnccn1)B(O)O [Bortezomib] (partner 0.002 µM)"
  CLASS: "c3"
- COMPOUND: "O=c1cc(N2CCOCC2)oc2c(-c3cccc4c3sc3ccccc34)cccc12 + Cc1nc(Nc2ncc(C(=O)Nc3c(C)cccc3Cl)s2)cc(N2CCN(CCO)CC2)n1 [Dasatinib] (partner 0.075 µM)"
  CLASS: "c2"
- COMPOUND: "CCN(CC)CCCCNc1ncc2cc(-c3cc(OC)cc(OC)c3)c(NC(=O)NC(C)(C)C)nc2n1 + CCNC(=O)c1noc(-c2cc(C(C)C)c(O)cc2O)c1-c1ccc(CN2CCOCC2)cc1 [Luminespib] (partner 0.01 µM)"
  CLASS: "c3"
- COMPOUND: "O=c1cc(N2CCOCC2)oc2c(-c3cccc4c3sc3ccccc34)cccc12 + CS(=O)(=O)CCNCc1ccc(-c2ccc3ncnc(Nc4ccc(OCc5cccc(F)c5)c(Cl)c4)c3c2)o1 [Lapatinib] (partner 2 µM)"
  CLASS: "c1"
- COMPOUND: "O=c1cc(N2CCOCC2)oc2c(-c3cccc4c3sc3ccccc34)cccc12 + NC(=O)Nc1cc(-c2cccc(F)c2)sc1C(=O)N[C@H]1CCCNC1 [AZD7762] (partner 0.2 µM)"
  CLASS: "c2"
- COMPOUND: "O=c1cc(N2CCOCC2)oc2c(-c3cccc4c3sc3ccccc34)cccc12 + Cc1cc(Nc2cc(N3CCN(C)CC3)nc(Sc3ccc(NC(=O)C4CC4)cc3)n2)n[nH]1 [Tozasertib] (partner 0.1 µM)"
  CLASS: "c1"

Each compound maps to one class by relative viability. Which class for O=c1cc(N2CCOCC2)oc2c(-c3cccc4c3sc3ccccc34)cccc12 + CC(=O)c1c(C)c2cnc(Nc3ccc(N4CCNCC4)cn3)nc2n(C2CCCC2)c1=O [Palbociclib] (partner 0.5 µM) ?
c1

Hi, small favor: classify CCN(CC)CCCCNc1ncc2cc(-c3cc(OC)cc(OC)c3)c(NC(=O)NC(C)(C)C)nc2n1 + O=C(c1cc(Cc2n[nH]c(=O)c3ccccc23)ccc1F)N1CCN(C(=O)C2CC2)CC1 [Olaparib] (partner 8 µM) by its relative viability when you get a moment.
c3

The entry to classify is CCN(CC)CCCCNc1ncc2cc(-c3cc(OC)cc(OC)c3)c(NC(=O)NC(C)(C)C)nc2n1 + COc1cc2c(Oc3ccc(NC(=O)C4(C(=O)Nc5ccc(F)cc5)CC4)cc3F)ccnc2cc1OCCCN1CCOCC1 [Foretinib] (partner 0.25 µM) ; which class holds it?
c2

Returns: class label. Input: CCN(CC)CCCCNc1ncc2cc(-c3cc(OC)cc(OC)c3)c(NC(=O)NC(C)(C)C)nc2n1 + Nc1ncn([C@H]2C[C@H](O)[C@@H](CO)O2)c(=O)n1 [Decitabine] (partner 2 µM)
c1

---

system: EBC-1; test: relative viability (nuclei count vs DMSO), 5 days (fraction); higher = more cells survive; conditions: first compound 0.01 µM
Entries annotated with measured relative viability
Simply state the number, no unit and no words.

- COMPOUND: "O=c1cc(N2CCOCC2)oc2c(-c3cccc4c3sc3ccccc34)cccc12 + CS(=O)(=O)CCNCc1ccc(-c2ccc3ncnc(Nc4ccc(OCc5cccc(F)c5)c(Cl)c4)c3c2)o1 [Lapatinib] (partner 2 µM)"
  STUDY_TARGET: "EBC-1"
  relative viability: 0.227
- COMPOUND: "CCN(CC)CCCCNc1ncc2cc(-c3cc(OC)cc(OC)c3)c(NC(=O)NC(C)(C)C)nc2n1 + CC(C)C[C@H](NC(=O)[C@H](Cc1ccccc1)NC(=O)c1cnccn1)B(O)O [Bortezomib] (partner 0.002 µM)"
  STUDY_TARGET: "EBC-1"
  relative viability: 0.554
- COMPOUND: "O=c1cc(N2CCOCC2)oc2c(-c3cccc4c3sc3ccccc34)cccc12 + COc1cc2c(Oc3ccc(NC(=O)C4(C(=O)Nc5ccc(F)cc5)CC4)cc3F)ccnc2cc1OCCCN1CCOCC1 [Foretinib] (partner 0.25 µM)"
  STUDY_TARGET: "EBC-1"
  relative viability: 0.0963
- COMPOUND: "O=c1cc(N2CCOCC2)oc2c(-c3cccc4c3sc3ccccc34)cccc12 + CC(C)C[C@H](NC(=O)[C@H](Cc1ccccc1)NC(=O)c1cnccn1)B(O)O [Bortezomib] (partner 0.002 µM)"
  STUDY_TARGET: "EBC-1"
  relative viability: 0.569

Requested field: relative viability. Item: CCN(CC)CCCCNc1ncc2cc(-c3cc(OC)cc(OC)c3)c(NC(=O)NC(C)(C)C)nc2n1 + CC1(C)CCC(c2ccc(Cl)cc2)=C(CN2CCN(c3ccc(C(=O)NS(=O)(=O)c4ccc(N[C@H](CCN5CCOCC5)CSc5ccccc5)c(S(=O)(=O)C(F)(F)F)c4)cc3)CC2)C1 [Navitoclax] (partner 0.5 µM)
0.339

Entry O=c1cc(N2CCOCC2)oc2c(-c3cccc4c3sc3ccccc34)cccc12 + Cc1nc(NC(=O)N2CCC[C@H]2C(N)=O)sc1-c1ccnc(C(C)(C)C(F)(F)F)c1 [Alpelisib] (partner 2 µM) : reported relative viability = ?
0.977

Can you look up the measured relative viability of O=c1cc(N2CCOCC2)oc2c(-c3cccc4c3sc3ccccc34)cccc12 + CS(=O)(=O)N1CCN(Cc2cc3nc(-c4cccc5[nH]ncc45)nc(N4CCOCC4)c3s2)CC1 [Pictilisib] (partner 1 µM) for me?
0.409

---

tested on: HCC-366; assay: relative viability (nuclei count vs DMSO), 5 days (fraction); higher = more cells survive; settings: first compound 0.03162 µM
QUANTITY: relative viability
Format: numeric value only, no unit, no commentary.

// lookup relative viability for CCN(CC)CCCCNc1ncc2cc(-c3cc(OC)cc(OC)c3)c(NC(=O)NC(C)(C)C)nc2n1 + CC(C)C[C@H](NC(=O)[C@H](Cc1ccccc1)NC(=O)c1cnccn1)B(O)O [Bortezomib] (partner 0.002 µM)
1.06

Suppose we examine the molecule CCN(CC)CCCCNc1ncc2cc(-c3cc(OC)cc(OC)c3)c(NC(=O)NC(C)(C)C)nc2n1 + CS(=O)(=O)N1CCN(Cc2cc3nc(-c4cccc5[nH]ncc45)nc(N4CCOCC4)c3s2)CC1 [Pictilisib] (partner 1 µM) ; what relative viability value has been reported?
0.177

Query: relative viability; subject: CCN(CC)CCCCNc1ncc2cc(-c3cc(OC)cc(OC)c3)c(NC(=O)NC(C)(C)C)nc2n1 + N=C(N)NC(=N)NCCc1ccccc1 [Phenformin] (partner 250 µM)
0.666

Bench note: what relative viability did O=c1cc(N2CCOCC2)oc2c(-c3cccc4c3sc3ccccc34)cccc12 + NC(=O)Nc1cc(-c2cccc(F)c2)sc1C(=O)N[C@H]1CCCNC1 [AZD7762] (partner 0.2 µM) show?
0.286

---

Overview of reported relative viability across a group of molecules:
test system: NCI-H1703; test: relative viability (nuclei count vs DMSO), 5 days (fraction); higher = more cells survive; details: first compound 0.3162 µM
Write the number on its own, no unit after it.

Here is how some molecules turned out for relative viability.
- MOLECULE: "CCN(CC)CCCCNc1ncc2cc(-c3cc(OC)cc(OC)c3)c(NC(=O)NC(C)(C)C)nc2n1 + NC(=O)Nc1cc(-c2cccc(F)c2)sc1C(=O)N[C@H]1CCCNC1 [AZD7762] (partner 0.2 µM)"
  relative viability: 0.143
- MOLECULE: "CCN(CC)CCCCNc1ncc2cc(-c3cc(OC)cc(OC)c3)c(NC(=O)NC(C)(C)C)nc2n1 + COc1cc2c(Oc3ccc(NC(=O)C4(C(=O)Nc5ccc(F)cc5)CC4)cc3F)ccnc2cc1OCCCN1CCOCC1 [Foretinib] (partner 0.25 µM)"
  relative viability: 0.308

Give relative viability (NCI-H1703) of the following molecule: CCN(CC)CCCCNc1ncc2cc(-c3cc(OC)cc(OC)c3)c(NC(=O)NC(C)(C)C)nc2n1 + CC1(C)CCC(c2ccc(Cl)cc2)=C(CN2CCN(c3ccc(C(=O)NS(=O)(=O)c4ccc(N[C@H](CCN5CCOCC5)CSc5ccccc5)c(S(=O)(=O)C(F)(F)F)c4)cc3)CC2)C1 [Navitoclax] (partner 0.5 µM)
1.32
